# assay-system: T1, 4H953-bN
# T1 chain: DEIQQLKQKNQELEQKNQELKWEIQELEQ
# assay: two-hybrid library CCNG1;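 also: natural log of median RNA to DNA barcode read ratio; higher means stronger binding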
endpoint: interaction score
Numbers only.

Look over these answered cases.
So, DENQQLEQKNQELEQKIQELEWKIQELKQ [4H1446-bN] ? Its interaction score was -0.0145

Kindly note the recorded interaction score for DKIQQLEQKNQELEQEIQELKWEIQELKQ [4H2442-bN] , which is -0.933

Per the record, DENQQLEQKIQELKQENQELKWEIQELEQ [4H1369-bN] has interaction score of -1.2

Note to self: interaction score recorded for DKNQQLKQEIQELEQENQELEWKIQELKQ [4H3606-bN] was -0.614

# interaction score (binder: DEIQQLEQKIQELKQENQELKWEIQELKQ [4H346-bN] ) is -0.533

Quick batch: interaction score for everything below.
1. DKNQQLKQKNQELKQKIQELKWEIQELEQ [4H4073-bN]
2. DENQQLEQEIQELEQKNQELKWEIQELEQ [4H1081-bN]
3. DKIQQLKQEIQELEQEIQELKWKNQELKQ [4H2576-bN]
4. DEIQQLKQENQELKQKNQELEWEIQELKQ [4H754-bN]
5. DEIQQLKQENQELEQKIQELKWENQELEQ [4H683-bN]
6. DENQQLKQKIQELEQKIQELEWENQELKQ [4H1828-bN]
7. DEIQQLKQKNQELEQENQELEWKIQELKQ [4H918-bN]

[-1.56, -0.906, -1.09, -1.42, -0.218, -0.334, 0.301]

Could you report interaction score for every entry in the following list?
1. DEIQQLEQEIQELKQEIQELEWKNQELKQ [4H72-bN]
2. DEIQQLKQENQELKQEIQELKWKIQELEQ [4H717-bN]

[-0.727, -1.57]
